A collection of compounds and their measured EC50
tgt: Muscarinic acetylcholine receptor M1 (Homo sapiens, UniProt P11229)
Sequence (P11229 whole entry): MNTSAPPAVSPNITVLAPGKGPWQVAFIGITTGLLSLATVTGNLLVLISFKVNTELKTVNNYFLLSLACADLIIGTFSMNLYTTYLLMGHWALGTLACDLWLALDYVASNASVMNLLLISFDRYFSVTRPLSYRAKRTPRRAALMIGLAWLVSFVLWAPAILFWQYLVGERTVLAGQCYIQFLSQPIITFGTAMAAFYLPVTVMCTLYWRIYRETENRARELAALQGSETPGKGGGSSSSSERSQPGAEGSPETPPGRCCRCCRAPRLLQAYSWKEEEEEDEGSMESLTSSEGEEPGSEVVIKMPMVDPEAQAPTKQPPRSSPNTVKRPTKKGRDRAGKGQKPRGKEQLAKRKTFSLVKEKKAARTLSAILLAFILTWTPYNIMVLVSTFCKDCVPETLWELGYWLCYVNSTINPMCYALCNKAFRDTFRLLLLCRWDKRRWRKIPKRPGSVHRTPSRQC
assay.explanation: Agonist activity at human muscarinic M1 receptor expressed in CHO cells assessed as effect on acetylcholine-induced intracellular calcium level by FLIPR assay
# output: bare number, implied unit nM

Some solved entries appear below for comparison.
compound_structure_string=O=C(NCC1CCNCC1)c1c(Cl)cccc1-c1cccc(Cl)c1 measurement_kind=EC50 endpoint_unit=nM reported_result=63.1
compound_structure_string=O=C(NCC1CCNCC1)c1c(F)cccc1-c1cc(Cl)ccc1Cl measurement_kind=EC50 endpoint_unit=nM reported_result=31.6
compound_structure_string=CS(=O)(=O)N(Cc1c(F)cccc1-c1cccc(Cl)c1)CC1CCNCC1 measurement_kind=EC50 endpoint_unit=nM reported_result=1580
compound_structure_string=O=C(NC[C@H]1CCNC[C@H]1F)c1c(F)cccc1-c1cccc(Cl)c1 measurement_kind=EC50 endpoint_unit=nM reported_result=158
compound_structure_string=CN(C(=O)Cc1ccccc1-c1cccc(Cl)c1)C1CCNCC1 measurement_kind=EC50 endpoint_unit=nM reported_result=50.1

INPUT: // Input: O=C(NCC1CCNCC1)c1c(-c2cccc(Cl)c2)ccc(Cl)c1F . Output its EC50 only.
OUTPUT: 25.1

INPUT: // Input: O=S(=O)(CCC1CCNCC1)c1ccccc1-c1cccc(Cl)c1 . Output its EC50 only.
OUTPUT: 63.1

* * *

tgt: Muscarinic acetylcholine receptor M1 (Homo sapiens) (UniProt P11229)
Sequence (whole entry): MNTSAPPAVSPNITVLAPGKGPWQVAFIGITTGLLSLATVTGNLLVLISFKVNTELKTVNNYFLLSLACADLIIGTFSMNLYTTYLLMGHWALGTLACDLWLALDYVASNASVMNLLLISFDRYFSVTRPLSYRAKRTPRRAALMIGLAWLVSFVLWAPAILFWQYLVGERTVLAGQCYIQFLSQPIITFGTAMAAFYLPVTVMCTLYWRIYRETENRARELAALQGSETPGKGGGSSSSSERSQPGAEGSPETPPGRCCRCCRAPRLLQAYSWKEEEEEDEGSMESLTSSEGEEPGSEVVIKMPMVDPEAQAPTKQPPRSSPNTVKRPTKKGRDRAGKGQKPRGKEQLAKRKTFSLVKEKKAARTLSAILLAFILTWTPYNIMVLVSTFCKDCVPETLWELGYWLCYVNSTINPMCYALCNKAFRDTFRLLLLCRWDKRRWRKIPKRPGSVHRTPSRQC
assay.explanation: Intrinsic activity at human muscarinic M1 receptor expressed in CHO cells assessed as effect on acetylcholine-induced intracellular calcium level by FLIPR assay relative to acetylcholine
Type: functional, cell-based
A collection of compounds and their measured Intrinsic activity
# output: bare number, implied unit %

Some solved entries appear below for comparison.
compound=O=C(NCC1CCNCC1)c1ccc(Cl)cc1-c1cccc(Cl)c1 measurement_kind="Intrinsic activity" reported_result=79
compound=O=C(NCC1CCNCC1)c1c(Cl)cccc1-c1cccc(Cl)c1 measurement_kind="Intrinsic activity" reported_result=109
compound=O=C(NCC1CCNCC1)c1c(-c2cccc(Cl)c2)ccc(Cl)c1F measurement_kind="Intrinsic activity" reported_result=80
compound=CS(=O)(=O)N(Cc1c(F)cccc1-c1cccc(Cl)c1)CC1CCNCC1 measurement_kind="Intrinsic activity" reported_result=51
compound=O=C(NCC1CCNCC1)c1cccc(Cl)c1-c1cccc(Cl)c1 measurement_kind="Intrinsic activity" reported_result=14

INPUT: // Input: Cc1ccc(C(=O)NCC2CCNCC2)c(-c2cccc(Cl)c2)c1 . Output its Intrinsic activity only.
OUTPUT: 77

INPUT: // Input: O=C(NCC1CCNCC1)c1cc(F)ccc1-c1cccc(Cl)c1 . Output its Intrinsic activity only.
OUTPUT: 78

INPUT: // Input: Cc1cccc(-c2cccc(Cl)c2)c1C(=O)NCC1CCNCC1 . Output its Intrinsic activity only.
OUTPUT: 37

INPUT: // Input: C[C@H]1CNCC[C@@H]1CNC(=O)c1c(F)cccc1-c1cccc(Cl)c1 (relative stereo) . Output its Intrinsic activity only.
OUTPUT: 116

INPUT: // Input: O=C(NCC1=C(F)CNCC1)c1c(-c2cccc(Cl)c2)ccc(Cl)c1F . Output its Intrinsic activity only.
OUTPUT: 74

INPUT: // Input: O=C(NCC1CCNCC1)c1ccc(F)cc1-c1cccc(Cl)c1 . Output its Intrinsic activity only.
OUTPUT: 24

* * *

assay.explanation: Ratio of drug level in brain to blood in rat at 3 mg/kg, po
Assay type: ADME, organism-based
Design: dose 3 mg/kg, route oral
measurement.kind: Kp

INPUT: // Input: C[C@H]1CNCC[C@]1(F)CNC(=O)c1c(F)cccc1-c1cccc(Cl)c1 . Output its Kp only.
OUTPUT: 0.3

* * *

tgt: Muscarinic acetylcholine receptor M1 (Homo sapiens)
Sequence (P11229 whole entry): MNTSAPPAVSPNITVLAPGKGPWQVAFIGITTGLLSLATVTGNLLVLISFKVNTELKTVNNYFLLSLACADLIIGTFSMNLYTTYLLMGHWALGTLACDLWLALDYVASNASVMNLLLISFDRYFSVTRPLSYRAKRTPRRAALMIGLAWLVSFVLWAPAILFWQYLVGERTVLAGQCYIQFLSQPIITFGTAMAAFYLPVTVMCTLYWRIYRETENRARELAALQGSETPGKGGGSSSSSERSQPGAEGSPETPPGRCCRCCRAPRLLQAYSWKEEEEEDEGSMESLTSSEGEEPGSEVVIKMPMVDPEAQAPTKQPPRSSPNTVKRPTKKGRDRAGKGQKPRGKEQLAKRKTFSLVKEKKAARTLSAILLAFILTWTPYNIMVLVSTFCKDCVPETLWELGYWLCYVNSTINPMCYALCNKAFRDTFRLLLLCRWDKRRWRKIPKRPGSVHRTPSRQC
assay.explanation: Agonist activity at human muscarinic M1 receptor expressed in CHO cells assessed as effect on acetylcholine-induced intracellular calcium level by FLIPR assay
measurement.kind: pEC50
Lab note: report pEC50 as minus log10 of the concentration in molar units, number only.

Some solved entries appear below for comparison.
compound="C[C@H]1CNCC[C@@H]1CNC(=O)c1c(F)cccc1-c1cccc(Cl)c1 (relative stereo)" reported_result=9.10
compound=O=C(NCC1=C(F)CNCC1)c1c(-c2cccc(Cl)c2)ccc(Cl)c1F reported_result=6.80
compound=O=C(Cc1ccccc1-c1cccc(Cl)c1)NC1CCNCC1 reported_result=6.80

INPUT: Please look at CC1CNCC=C1CNC(=O)c1c(-c2cccc(Cl)c2)ccc(Cl)c1F (stereo not given) and tell me its recorded pEC50 on Muscarinic acetylcholine receptor M1 (Homo sapiens).
OUTPUT: 6.80

* * *

tgt: Muscarinic acetylcholine receptor M1 (Homo sapiens)
assay.explanation: Intrinsic activity at human muscarinic M1 receptor expressed in CHO cells assessed as effect on acetylcholine-induced intracellular calcium level by FLIPR assay relative to acetylcholine
Assay type: functional, cell-based
measurement.kind: Intrinsic activity (%)
# output: bare number, implied unit %

Some solved entries appear below for comparison.
compound_structure_string=O=C(NCC1CCNCC1)c1ccncc1-c1cccc(Cl)c1 reported_result=3
compound_structure_string=C[C@H]1CNCC[C@]1(F)CNC(=O)c1c(F)cccc1-c1cccc(Cl)c1 reported_result=85
compound_structure_string=O=C(Cc1ccccc1-c1cccc(Cl)c1)NC1CCNCC1 reported_result=74
compound_structure_string=O=C(NCC1CCNCC1)c1ncccc1-c1cccc(Cl)c1 reported_result=18
compound_structure_string=O=C(NCc1ccccc1-c1cccc(Cl)c1)C1CCNCC1 reported_result=81

Now take the following compound into account.
INPUT: // Input: Cn1cc(-c2cccc(Cl)c2)c(C(=O)NCC2CCNCC2)n1 . Output its Intrinsic activity only.
OUTPUT: 0

* * *

tgt: Muscarinic acetylcholine receptor M4 (Homo sapiens, UniProt P08173)
Sequence (P08173 whole entry): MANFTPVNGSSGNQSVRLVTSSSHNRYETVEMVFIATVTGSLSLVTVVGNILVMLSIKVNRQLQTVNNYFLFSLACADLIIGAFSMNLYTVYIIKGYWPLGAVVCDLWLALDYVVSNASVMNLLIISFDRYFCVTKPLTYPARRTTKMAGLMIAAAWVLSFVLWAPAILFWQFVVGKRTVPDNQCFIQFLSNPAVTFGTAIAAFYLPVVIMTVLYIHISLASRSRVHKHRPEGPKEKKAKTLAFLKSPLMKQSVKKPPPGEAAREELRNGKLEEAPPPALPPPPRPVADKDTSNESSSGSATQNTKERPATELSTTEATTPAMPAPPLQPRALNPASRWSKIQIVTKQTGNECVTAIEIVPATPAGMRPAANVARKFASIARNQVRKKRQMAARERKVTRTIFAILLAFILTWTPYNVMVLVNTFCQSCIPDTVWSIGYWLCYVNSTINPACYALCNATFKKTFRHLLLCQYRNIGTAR
assay.explanation: Inhibition of human muscarinic M4 receptor expressed in CHO cells
pEC50: −log10 of the molar value.
measurement.kind: pEC50

INPUT: Please look at O=C(NCC1CCNCC1)c1ccccc1-c1nc(Cl)cs1 and tell me its recorded pEC50 on Muscarinic acetylcholine receptor M4 (Homo sapiens, UniProt P08173).
OUTPUT: < 5.00
